Ref: paper PMC12040169

Listed molecules paired with reported viability at 28.5 h, 10 µM
assay: in vitro; settings: human, hela cells, % viability
Numbers only here, please. The scale is %.

Please review the following examples before continuing.
| molecule | viability at 28.5 h, 10 µM / % |
| --- | --- |
| Cn1ccnc1[S+]([O-])Cc1nc2ccccc2s1 (stereo not drawn) | 91.5 |
| CCCCOc1ccc(C(=O)OC(Cc2cccc3ccccc23)CN(CC)CC)cc1 (stereo not drawn) [CBK011965C] | 87.7 |
| CCc1nccn1CCN1CCCC(COc2ccccc2F)C1 (stereo not drawn) | 93.4 |
| Cc1ccc(N(Cc2ccc(C(=O)N(C)Cc3ccccc3)cc2)S(C)(=O)=O)cc1C | 81.5 |
| COCCN(Cc1cnn(C)c1)C(=O)NCc1nc2c(C)cccc2o1 | 86.8 |
| CC(=O)Nc1cc(NC(C)=O)c(O)c(C(=O)O)c1 | 88.6 |

Query block: Query (molecule): `Cn1cc(CNS(=O)(=O)c2ccc(Br)c(F)c2)cn1` ; field requested: viability at 28.5 h, 10 µM
Result block: 87.7

Query block: # input molecule: `CCc1cn(C[C@H](NC(=O)c2ccco2)C(=O)O)c(=O)[nH]c1=O` ; wanted: its viability at 28.5 h, 10 µM
Result block: 86

Query block: Which measured viability at 28.5 h, 10 µM value corresponds to `Cc1ccc(CSc2cnc(C(C)(C)C)nc2)cc1` ?
Result block: 112

====

assay: in vitro; conditions: human, hela cells, % viability
Reported viability at 28.5 h, 10 µM is given for each of the following molecules.
Hi! Could you send only the number? It should be in %, unit omitted.

| molecule | viability at 28.5 h, 10 µM [%] |
| --- | --- |
| CN1CC[C@]2(c3ccc4c(c3)nnn4C)CC[C@@H](NC(=O)Nc3cccc(C(F)(F)F)c3F)C[C@H]12 | 99.9 |

Query block: Can you look up the measured viability at 28.5 h, 10 µM of `COc1cc(/C=C/c2nc(O)c([N+](=O)[O-])c(=O)[nH]2)ccc1OCC(=O)N1CCOCC1` for me?
Result block: 96.8

Query block: I would be grateful if you could share the reported viability at 28.5 h, 10 µM for CC(C)(C)C1CCc2onc(C(=O)NCCn3ccnc3)c2C1 (stereo not shown) .
Result block: 87.1

Query block: Please report the recorded viability at 28.5 h, 10 µM for `Cc1cc2c(s1)c1cnn(CC(=O)N(C)C)c(=O)c1n2C` .
Result block: 99.5

Query block: Could you tell me which viability at 28.5 h, 10 µM is on file for CN(C)CCCN1C(=O)C(O)=C(C(=O)c2ccc(Br)cc2)C1c1cccnc1 (stereo not shown) ?
Result block: 105

Query block: I have this molecule here, COC(=O)C1=C(C)N=c2s/c(=C/c3ccc(OC)c(OC(C)=O)c3)c(=O)n2C1c1cccs1 (stereo not shown) , and I need its recorded viability at 28.5 h, 10 µM.
Result block: 88.3

Query block: Find the recorded viability at 28.5 h, 10 µM belonging to `O=C(c1ccc(F)cc1)N1CCC(O)(c2ccccn2)CC1` and report it.
Result block: 92.9

Query block: Tell me the measured viability at 28.5 h, 10 µM of O=C(O)CC(CNC(=O)Cc1c[nH]c2ccccc12)c1ccc(Cl)cc1 (stereo not shown) , please.
Result block: 91.7

Query block: I would be grateful if you could share the reported viability at 28.5 h, 10 µM for `CCOc1cccc(-c2cncc(NCCO)n2)c1` .
Result block: 81

Query block: Quick one: viability at 28.5 h, 10 µM for CCC1(c2ccccc2)OCC(C2CCCCN2)O1 (stereo not shown) [CBK023284C] ?
Result block: 85.7

Query block: Query (molecule): `CS(=O)(=O)CCNC(=O)c1cnc(-c2ccc(F)cc2)c(-c2ccco2)c1` ; field requested: viability at 28.5 h, 10 µM
Result block: 93.1

Query block: Need viability at 28.5 h, 10 µM of `CCCN1CCC(CNC(=O)c2cnn(-c3ccc(F)cc3)c2)CC1` , thanks.
Result block: 112

Query block: Fill in the blank: the reported viability at 28.5 h, 10 µM of `Cc1ccc(OCC(=O)Nc2ccc3c(c2)C(=O)Nc2ccccc2O3)cc1` is ____.
Result block: 88.2

Query block: // viability at 28.5 h, 10 µM lookup, key: O=C(NCc1cccc(C(F)(F)F)c1)N1CCCCC1CO (stereo not shown)
Result block: 90.7

Query block: Any idea what its viability at 28.5 h, 10 µM is? The molecule is `N#Cc1ccsc1NC(=O)CN1CCN(c2cccc(Cl)c2)CC1`
Result block: 81.1

Query block: Name the recorded viability at 28.5 h, 10 µM for Cc1ccc2[nH]c3c(c2c1)CCNC31CCN(C(=O)CC(C)CC(=O)O)CC1 (stereo not shown) .
Result block: 109
